The measured values listed here are drawn from PubChem BioAssay AID1918991.

system: 186277-243-T-J2-PDC complex spheroid growth; assay: Anticancer human tumor 186277-243-T-J2-PDC patient-derived colon adenocarcinoma cell line growth inhibition [AhR]; conditions: second compound 1 µM; first compound 0.00316 µM; stronger effect = lower value
Recorded viability, T/C for the following molecules

MOLECULE | viability, T/C [%]
Cn1ncnc1C1c2n[nH]c(=O)c3cc(F)cc(c23)NC1c1ccc(F)cc1 (stereo unspecified) + Cc1ccccc1N=Nc1ccc(NC(=O)c2ccnn2C)c(C)c1 | 109
Nc1ncn(C2CC(O)C(CO)O2)c(=O)n1 (stereo unspecified) + Cc1cncc(-c2nc(NCCc3c[nH]c4ccccc34)c3ncn(C(C)C)c3n2)c1 | 98.5
CC[C@@]1(O)C(=O)OCc2c1cc1n(c2=O)Cc2cc3c(CN(C)C)c(O)ccc3nc2-1 + Cc1ccccc1N=Nc1ccc(NC(=O)c2ccnn2C)c(C)c1 | 110
CC1COCCN1c1cc(-c2ccnn2C)c2ccnc(-c3ccn[nH]3)c2n1 (stereo unspecified) + Cc1cncc(-c2nc(NCCc3c[nH]c4ccccc34)c3ncn(C(C)C)c3n2)c1 | 107
Cn1ncnc1C1c2n[nH]c(=O)c3cc(F)cc(c23)NC1c1ccc(F)cc1 (stereo unspecified) + CC(CO)NC(=O)c1cc(-c2ccc(Cl)cc2)nn(-c2cnn(C)c2)c1=O | 118
Nc1ncn(C2CC(O)C(CO)O2)c(=O)n1 (stereo unspecified) + Cc1ccccc1N=Nc1ccc(NC(=O)c2ccnn2C)c(C)c1 | 100

###

system: 186277-243-T-J2-PDC complex spheroid growth; test: Anticancer human tumor 186277-243-T-J2-PDC cell line growth inhibition [AhR]; settings: curve of first compound; second compound 0.1 µM;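 also: spheroids exposed to compounds for seven days before the viability read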
MEASUREMENT NAME: IC50 (µM)

COMPOUND | TARGET OR TEST SYSTEM | CMP | VAL
Nc1ccn(C2OC(CO)C(O)C2(F)F)c(=O)n1 (stereo not given) + Cc1cncc(-c2nc(NCCc3c[nH]c4ccccc34)c3ncn(C(C)C)c3n2)c1 | 186277-243-T-J2-PDC complex spheroid growth | < | 0.0316
COc1cc(Nc2ncc3c(n2)-c2ccc(Cl)cc2C(c2c(F)cccc2OC)=NC3)ccc1C(=O)O + Cc1ccccc1N=Nc1ccc(NC(=O)c2ccnn2C)c(C)c1 | 186277-243-T-J2-PDC complex spheroid growth | > | 10
Cn1ncnc1C1c2n[nH]c(=O)c3cc(F)cc(c23)NC1c1ccc(F)cc1 (stereo not given) + Cc1cncc(-c2nc(NCCc3c[nH]c4ccccc34)c3ncn(C(C)C)c3n2)c1 | 186277-243-T-J2-PDC complex spheroid growth | > | 0.1
CC1COCCN1c1cc(C2(S(C)(=N)=O)CC2)nc(-c2ccnc3[nH]ccc23)n1 (stereo not given) + Cc1cncc(-c2nc(NCCc3c[nH]c4ccccc34)c3ncn(C(C)C)c3n2)c1 | 186277-243-T-J2-PDC complex spheroid growth | = | 4.07
CC1(C)CCC(CN2CCN(c3ccc(C(=O)NS(=O)(=O)c4ccc(NCC5CCOCC5)c([N+](=O)[O-])c4)c(Oc4cnc5[nH]ccc5c4)c3)CC2)=C(c2ccc(Cl)cc2)C1 + CC(CO)NC(=O)c1cc(-c2ccc(Cl)cc2)nn(-c2cnn(C)c2)c1=O | 186277-243-T-J2-PDC complex spheroid growth | = | 5.42

###

tested on: 186277-243-T-J2-PDC complex spheroid growth; experiment: Anticancer human tumor 186277-243-T-J2-PDC cell line growth inhibition [AhR]; details: second compound 1 µM; first compound 0.03 µM; stronger effect = lower value;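 also: spheroids exposed to compounds for seven days before the viability read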;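 as to viability, T/C: luminescent signal used as a stand-in for viable cell amount; 100% = DMSO vehicle control wells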
MEASUREMENT NAME: viability, T/C (%)

COMPOUND | TARGET OR TEST SYSTEM | UNIT NAME | VAL
CC(C)CC(NC(=O)C(Cc1ccccc1)NC(=O)c1cnccn1)B(O)O (stereo not drawn) + Cc1ccccc1N=Nc1ccc(NC(=O)c2ccnn2C)c(C)c1 | 186277-243-T-J2-PDC complex spheroid growth | % | 1.95
O=C(C=Cn1cnc(-c2cc(C(F)(F)F)cc(C(F)(F)F)c2)n1)NNc1cnccn1 + CC(CO)NC(=O)c1cc(-c2ccc(Cl)cc2)nn(-c2cnn(C)c2)c1=O | 186277-243-T-J2-PDC complex spheroid growth | % | 67.6
O=C(C=Cn1cnc(-c2cc(C(F)(F)F)cc(C(F)(F)F)c2)n1)NNc1cnccn1 + Cc1cncc(-c2nc(NCCc3c[nH]c4ccccc34)c3ncn(C(C)C)c3n2)c1 | 186277-243-T-J2-PDC complex spheroid growth | % | 123
CC(C)CC(NC(=O)C(Cc1ccccc1)NC(=O)c1cnccn1)B(O)O (stereo not drawn) + CC(CO)NC(=O)c1cc(-c2ccc(Cl)cc2)nn(-c2cnn(C)c2)c1=O | 186277-243-T-J2-PDC complex spheroid growth | % | 0.06
CCc1c2c(nc3ccc(O)cc13)-c1cc3c(c(=O)n1C2)COC(=O)[C@]3(O)CC + CC(CO)NC(=O)c1cc(-c2ccc(Cl)cc2)nn(-c2cnn(C)c2)c1=O | 186277-243-T-J2-PDC complex spheroid growth | % | 16.4
CCN(c1cc(-c2ccc(CN3CCOCC3)cc2)cc(C(=O)NCc2c(C)cc(C)[nH]c2=O)c1C)C1CCOCC1 + CC(CO)NC(=O)c1cc(-c2ccc(Cl)cc2)nn(-c2cnn(C)c2)c1=O | 186277-243-T-J2-PDC complex spheroid growth | % | 90.5
Nc1ncn(C2CC(O)C(CO)S2)c(=O)n1 (stereo not drawn) + Cc1cncc(-c2nc(NCCc3c[nH]c4ccccc34)c3ncn(C(C)C)c3n2)c1 | 186277-243-T-J2-PDC complex spheroid growth | % | 140
CCc1c2c(nc3ccc(O)cc13)-c1cc3c(c(=O)n1C2)COC(=O)[C@]3(O)CC + Cc1ccccc1N=Nc1ccc(NC(=O)c2ccnn2C)c(C)c1 | 186277-243-T-J2-PDC complex spheroid growth | % | 80.5

###

tested on: 186277-243-T-J2-PDC complex spheroid growth; test: Anticancer human tumor 186277-243-T-J2-PDC cell line growth inhibition [AhR]; conditions: curve of first compound; second compound 0.1 µM;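 also: spheroids exposed to compounds for seven days before the viability read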

MOLECULE | CMP | IC50 [nM]
O=C(c1cc(Cc2n[nH]c(=O)c3ccccc23)ccc1F)N1CCN(C(=O)C2CC2)CC1 + Cc1cncc(-c2nc(NCCc3c[nH]c4ccccc34)c3ncn(C(C)C)c3n2)c1 | > | 10000
CC(C)CC(NC(=O)C(Cc1ccccc1)NC(=O)c1cnccn1)B(O)O (stereo unspecified) + Cc1ccccc1N=Nc1ccc(NC(=O)c2ccnn2C)c(C)c1 | = | 17.7
COc1cccc2c1C(=O)c1c(O)c3c(c(O)c1C2=O)CC(O)(C(=O)CO)CC3OC1CC(N)C(O)C(C)O1 (stereo unspecified) + Cc1cncc(-c2nc(NCCc3c[nH]c4ccccc34)c3ncn(C(C)C)c3n2)c1 | = | 200
NS(=O)(=O)OCC1CC(n2ccc3c(NC4CCc5ccccc54)ncnc32)CC1O (stereo unspecified) + Cc1ccccc1N=Nc1ccc(NC(=O)c2ccnn2C)c(C)c1 | = | 853
CC1COCCN1c1cc(C2(S(C)(=N)=O)CC2)nc(-c2ccnc3[nH]ccc23)n1 (stereo unspecified) + Cc1ccccc1N=Nc1ccc(NC(=O)c2ccnn2C)c(C)c1 | = | 2340
Nc1ccccc1NC(=O)c1ccc(CNC(=O)OCc2cccnc2)cc1 + Cc1ccccc1N=Nc1ccc(NC(=O)c2ccnn2C)c(C)c1 | = | 5860

###

Recorded viability, T/C for the following compounds
test system: 186277-243-T-J2-PDC complex spheroid growth; test: Anticancer human tumor 186277-243-T-J2-PDC cell line growth inhibition [AhR]; settings: second compound 1 µM; first compound 0.00949 µM; stronger effect = lower value;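 also: spheroids exposed to compounds for seven days before the viability read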;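 as to viability, T/C: luminescent signal used as a stand-in for viable cell amount; 100% = DMSO vehicle control wells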
MEASUREMENT NAME: viability, T/C (%)

COMPOUND | TARGET OR TEST SYSTEM | VAL
O=C(C=Cn1cnc(-c2cc(C(F)(F)F)cc(C(F)(F)F)c2)n1)NNc1cnccn1 + CC(CO)NC(=O)c1cc(-c2ccc(Cl)cc2)nn(-c2cnn(C)c2)c1=O | 186277-243-T-J2-PDC complex spheroid growth | 83.3
CC(C)CC(NC(=O)C(Cc1ccccc1)NC(=O)c1cnccn1)B(O)O (stereo not drawn) + CC(CO)NC(=O)c1cc(-c2ccc(Cl)cc2)nn(-c2cnn(C)c2)c1=O | 186277-243-T-J2-PDC complex spheroid growth | 4.62
CCN(c1cc(-c2ccc(CN3CCOCC3)cc2)cc(C(=O)NCc2c(C)cc(C)[nH]c2=O)c1C)C1CCOCC1 + CC(CO)NC(=O)c1cc(-c2ccc(Cl)cc2)nn(-c2cnn(C)c2)c1=O | 186277-243-T-J2-PDC complex spheroid growth | 83.5

###

system: 186277-243-T-J2-PDC complex spheroid growth; assay: Anticancer human tumor 186277-243-T-J2-PDC cell line growth inhibition [AhR]; details: second compound 10 µM; first compound 10 µM; stronger effect = lower value;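 also: spheroids exposed to compounds for seven days before the viability read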;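 as to viability, T/C: luminescent signal used as a stand-in for viable cell amount; 100% = DMSO vehicle control wells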
Decide using viability, T/C alone. Strictly below 6%: YES. Equal to or above 6%: NO.

COMPOUND | GROUP
COc1ccc([C@@H](O)c2cc(-c3ncnc4cc(N5CCOCC5)ccc34)c(F)cc2Cl)nn1 + CC(CO)NC(=O)c1cc(-c2ccc(Cl)cc2)nn(-c2cnn(C)c2)c1=O | NO
O=C(C=Cc1cccc(S(=O)(=O)Nc2ccccc2)c1)NO + CC(CO)NC(=O)c1cc(-c2ccc(Cl)cc2)nn(-c2cnn(C)c2)c1=O | YES
COc1cc(C2c3cc4c(cc3C(OC3OC5COC(C)OC5C(O)C3O)C3COC(=O)C23)OCO4)cc(OC)c1O (centres undefined) + CC(CO)NC(=O)c1cc(-c2ccc(Cl)cc2)nn(-c2cnn(C)c2)c1=O | NO
O=C(C=Cc1cccc(S(=O)(=O)Nc2ccccc2)c1)NO + Cc1cncc(-c2nc(NCCc3c[nH]c4ccccc34)c3ncn(C(C)C)c3n2)c1 | YES
CC(C)c1c(-c2ccccc2)nc2c(C#N)c[nH]n2c1=O + Cc1ccccc1N=Nc1ccc(NC(=O)c2ccnn2C)c(C)c1 | NO
O=C(c1cc(Cc2n[nH]c(=O)c3ccccc23)ccc1F)N1CCN(C(=O)C2CC2)CC1 + Cc1ccccc1N=Nc1ccc(NC(=O)c2ccnn2C)c(C)c1 | NO
NS(=O)(=O)OCC1CC(n2ccc3c(NC4CCc5ccccc54)ncnc32)CC1O (centres undefined) + CC(CO)NC(=O)c1cc(-c2ccc(Cl)cc2)nn(-c2cnn(C)c2)c1=O | YES
Nc1ccccc1NC(=O)c1ccc(CNC(=O)OCc2cccnc2)cc1 + CC(CO)NC(=O)c1cc(-c2ccc(Cl)cc2)nn(-c2cnn(C)c2)c1=O | YES
CC(C)c1c(-c2ccccc2)nc2c(C#N)c[nH]n2c1=O + CC(CO)NC(=O)c1cc(-c2ccc(Cl)cc2)nn(-c2cnn(C)c2)c1=O | NO
CC1COCCN1c1cc(C2(S(C)(=N)=O)CC2)nc(-c2ccnc3[nH]ccc23)n1 (centres undefined) + Cc1ccccc1N=Nc1ccc(NC(=O)c2ccnn2C)c(C)c1 | NO
O=C(c1cc(Cc2n[nH]c(=O)c3ccccc23)ccc1F)N1CCN(C(=O)C2CC2)CC1 + Cc1cncc(-c2nc(NCCc3c[nH]c4ccccc34)c3ncn(C(C)C)c3n2)c1 | NO
COc1cc(Nc2ncc3c(n2)-c2ccc(Cl)cc2C(c2c(F)cccc2OC)=NC3)ccc1C(=O)O + CC(CO)NC(=O)c1cc(-c2ccc(Cl)cc2)nn(-c2cnn(C)c2)c1=O | NO
Nc1ccn(C2OC(CO)C(O)C2(F)F)c(=O)n1 (centres undefined) + Cc1cncc(-c2nc(NCCc3c[nH]c4ccccc34)c3ncn(C(C)C)c3n2)c1 | NO
Nc1ccccc1NC(=O)c1ccc(CNC(=O)OCc2cccnc2)cc1 + Cc1ccccc1N=Nc1ccc(NC(=O)c2ccnn2C)c(C)c1 | NO
